Please respond with reported drug sensitivity score for every item in the list.
System: OVCAR8
procedure details: drug sensitivity score (DSS2) on cancer cell count; higher = more sensitive; extreme values may be limits of the assay
conditions: co-cultured fibroblast: WI38; 72 h
Field note: include the unit after the figure.

drug sensitivity score for CC(C)Cn1cnc2c(N)nc3ccccc3c21 ? 0 DSS

Likewise for CCC1=C[C@@H]2CN(C1)Cc1c([nH]c3ccccc13)[C@@](C(=O)OC)(c1cc3c(cc1OC)N(C)[C@H]1[C@@](O)(C(=O)OC)[C@H](OC(C)=O)[C@]4(CC)C=CCN5CC[C@]31[C@@H]54)C2 ? 33 DSS

Likewise for CC1(C)CNc2cc(NC(=O)c3cccnc3NCc3ccncc3)ccc21 ? 1 DSS

Likewise for CC[C@H](NC(=O)[C@H](C)NC)C(=O)N1C[C@@H](O)C[C@H]1Cc1c(-c2[nH]c3cc(F)ccc3c2C[C@@H]2C[C@H](O)CN2C(=O)[C@H](CC)NC(=O)[C@H](C)NC)[nH]c2cc(F)ccc12 ? 12.9 DSS

* * *

Please respond with reported drug sensitivity score for every item in the list.
Test system: OVCAR8
procedure details: drug sensitivity score (DSS2) on cancer cell count; higher = more sensitive; extreme values may be limits of the assay
conditions: co-cultured fibroblast: WI38; 72 h
Report as a plain number; the unit DSS is understood.

drug sensitivity score for Cn1cc(-c2cnn3c(N)c(Br)c([C@@H]4CCCNC4)nc23)cn1 ? 0.2

Likewise for CCc1cncnc1N1CCN(Cc2nc3ccc(C(F)(F)F)cc3[nH]2)CC1 ? 0

Likewise for Nc1cc(C(F)(F)F)c(-c2cc(N3CCOCC3)nc(N3CCOCC3)n2)cn1 ? 3.4

Likewise for Cc1cc(Nc2cc(N3CCN(C)CC3)nc(/C=C/c3ccccc3)n2)n[nH]1 ? 8.6

Likewise for Cc1c2oc3c(C)ccc(C(=O)N[C@@H]4C(=O)N[C@H](C(C)C)C(=O)N5CCC[C@H]5C(=O)N(C)CC(=O)N(C)[C@@H](C(C)C)C(=O)O[C@@H]4C)c3nc-2c(C(=O)N[C@@H]2C(=O)N[C@H](C(C)C)C(=O)N3CCC[C@H]3C(=O)N(C)CC(=O)N(C)[C@@H](C(C)C)C(=O)O[C@@H]2C)c(N)c1=O ? 32.4

Likewise for CCN1CCN(c2ccc(Nc3cc(N(C)C(=O)Nc4c(Cl)c(OC)cc(OC)c4Cl)ncn3)cc2)CC1 ? 0

Likewise for Cc1c(N)nc([C@H](CC(N)=O)NC[C@H](N)C(N)=O)nc1C(=O)N[C@H](C(=O)N[C@H](C)[C@@H](O)[C@H](C)C(=O)N[C@H](C(=O)NCCc1nc(-c2nc(C(=O)NCCC[S+](C)C)cs2)cs1)[C@@H](C)O)[C@@H](OC1OC(CO)C(O)C(O)C1OC1OC(CO)C(O)C(OC(N)=O)C1O)c1cnc[nH]1 (some centres undefined) ? 11.5

Likewise for CCc1c(C(=O)C(N)=O)c2c(OCC(=O)O)cccc2n1Cc1ccccc1 ? 0

Likewise for O=C(c1ccc(F)c(F)c1Nc1ccc(I)cc1F)N1CC(O)([C@@H]2CCCCN2)C1 ? 2.1

Likewise for COCC[n+]1c2c(n(Cc3cnccn3)c1C)C(=O)c1ccccc1C2=O [Sepantronium bromide] ? 35.5

Likewise for CCNCCS(=O)(=O)NC[C@@]1(c2ccccc2)SC(NC(=O)C(C)(C)C)=NN1C(=O)C(C)(C)C ? 28.8

Likewise for CC1(C)OCCn2c1nc1c(N3CCOCC3)nc(-c3cnc(N)nc3)nc12 ? 3.8

Likewise for CCCc1cc(C)[nH]c(=O)c1CNC(=O)c1cc(-c2ccnc(N3CCN(C)CC3)c2)cc2c1cnn2C(C)C ? 0

Likewise for Nc1nccc(-c2c(-c3ccc(F)cc3)ncn2C2CCCCC2)n1 ? 0

Likewise for CC(O)c1cc(C(=O)N[C@@H](C)Cn2ccc(-c3ccc(C#N)c(Cl)c3)n2)n[nH]1 (some centres undefined) ? 0

Likewise for CCC/C=C/C=C/C(=O)O[C@H]1/C(=C/C(=O)OC)C[C@H]2C[C@H]([C@@H](C)O)OC(=O)C[C@H](O)C[C@@H]3C[C@H](OC(C)=O)C(C)(C)[C@](O)(C[C@@H]4C/C(=C/C(=O)OC)C[C@H](/C=C/C(C)(C)[C@]1(O)O2)O4)O3 ? 0

Likewise for COc1cc2nccc(Oc3ccc(NC(=O)NC4CC4)c(Cl)c3)c2cc1C(N)=O ? 0

Likewise for CN1CCC(CNc2ccc3ncc(-c4cccc(OC(F)(F)F)c4)n3n2)CC1 ? 4.5

Likewise for CCCCOc1nc(N)c2c(n1)N(Cc1cccc(CN3CCCC3)c1)CC(=O)N2 ? 0

Likewise for C[C@@H]1CN(CC(=O)Nc2ccc3c(c2)Cc2cccc(-c4cc(=O)cc(N5CCOCC5)o4)c2S3)C[C@H](C)O1 ? 5.6

Likewise for COc1ncc(-c2ccc3nccc(-c4ccnnc4)c3c2)cc1NS(=O)(=O)c1ccc(F)cc1F ? 6.5

Likewise for O=c1sn(-c2cccc3ccccc23)c(=O)n1Cc1ccccc1 ? 1.5

Likewise for C[C@@H]1CN(Cc2ccc(F)cc2)[C@@H](C)CN1C(=O)c1cc2c(C(=O)C(=O)N(C)C)cn(C)c2cc1Cl ? 0

Likewise for N#Cc1ccc(COC[C@H]2O[C@@H](n3c(NCc4ccc(Cl)c(Cl)c4)nc4c(N)ncnc43)[C@H](O)[C@@H]2O)cc1 ? 0

Likewise for CCN1C(=O)CNc2ncc(-c3ccc(-c4nc[nH]n4)nc3C)nc21 ? 4.8

Likewise for FC(F)c1nc2ccccc2n1-c1nc(N2CCOCC2)nc(N2CCOCC2)n1 ? 0

Likewise for O=C1Cc2cc(C(=O)NC3C[C@H]4CC[C@@H](C3)N4S(=O)(=O)CC3CCN(CCCC(F)(F)F)CC3)c(Cl)cc2N1 (some centres undefined) ? 0

Likewise for CCOCc1nc2c(N)nc3ccccc3c2n1CC(C)(C)O ? 0

Likewise for C[C@H]1CNCCCN1S(=O)(=O)c1cccc2cncc(F)c12 ? 6.9
